Protocol Summary: Association constant of compound was evaluated at pH 5
Type: ADME
Reported Endpoint: Ka (M⁻¹)
Answers are plain numbers, in M⁻¹.

# compound N[C@H]1C(=O)NC2Cc3ccc(c(Cl)c3)Oc3cc4cc(c3O)Oc3ccc(cc3Cl)C/C3=N\C(=O)C(NC(=O)C4NC(=O)C(NC2=O)c2cc(O)cc(c2)Oc2cc1ccc2O)c1ccc(O)c(c1)-c1c(O)cc(O)cc1[C@@H](C(=O)O)NC3=O (stereo partly specified) ; its Ka = 100000

---

Protocol Summary: Association constant of compound was evaluated at pH 9
Assay type: ADME
Reported Endpoint: Ka
Put down the number, then write its unit next to it.

Smiles Repr	Ka
CC(=O)N[C@@H]1[C@H](O[C@@H]2c3ccc(c(Cl)c3)Oc3cc4cc(c3O)Oc3ccc(cc3Cl)C[C@H]3NC(=O)[C@H](N)c5ccc(O)c(c5)Oc5cc(O)cc(c5)[C@H](NC3=O)C(=O)N[C@H]4C(=O)N[C@H]3C(=O)N[C@@H]2C(=O)N[C@H](C(=O)O)c2cc(O)cc(O)c2-c2cc3ccc2O)O[C@@H](CO)[C@@H](O)[C@@H]1O	32000 M⁻¹

Let us examine a further case.
# compound CCCCC/C=C/CCC(=O)N[C@@H]1[C@H](Oc2c3cc4cc2Oc2ccc(cc2Cl)[C@@H](O[C@@H]2O[C@@H](CO)[C@@H](O)[C@H](O)[C@@H]2NC(C)=O)[C@@H]2NC(=O)[C@H](NC(=O)[C@@H]4NC(=O)[C@H]4NC(=O)[C@@H](Cc5ccc(c(Cl)c5)O3)NC(=O)[C@H](N)c3ccc(O)c(c3)Oc3cc(O)cc4c3)c3ccc(O)c(c3)-c3c(O[C@H]4O[C@H](CO)[C@@H](O)[C@@H](O)[C@@H]4O)cc(O)cc3[C@@H](C(=O)O)NC2=O)O[C@@H](CO)[C@@H](O)[C@@H]1O ; its Ka = 2.1e+06 M⁻¹

---

Test system: Staphylococcus epidermidis
Protocol Summary: Minimum inhibitory concentration against Staphylococcus epidermis ATCC 12228 evaluated in vitro
Assay type: functional
Condition Notes: Staphylococcus epidermidis, ATCC 12228; read-out: MIC
Reported Endpoint: MIC (µg/mL)
Numbers only, in µg/mL.

Compound	Target	Unit Abbreviation	Recorded Number
N[C@H]1C(=O)NC2Cc3ccc(c(Cl)c3)Oc3cc4cc(c3O)Oc3ccc(cc3Cl)C/C3=N\C(=O)C(NC(=O)C4NC(=O)C(NC2=O)c2cc(O)cc(c2)Oc2cc1ccc2O)c1ccc(O)c(c1)-c1c(O)cc(O)cc1[C@@H](C(=O)O)NC3=O (stereo partly drawn)	Staphylococcus epidermidis	µg/mL	0.125

Consider the following items and state reported MIC for each.
1. CCCCC/C=C/CCC(=O)N[C@@H]1[C@H](Oc2c3cc4cc2Oc2ccc(cc2Cl)CC2NC(=O)[C@H](N)c5ccc(O)c(c5)Oc5cc(O)cc(c5)C(NC2=O)C(=O)NC4C(=O)NC2C(=O)/N=C(\Cc4ccc(c(Cl)c4)O3)C(=O)N[C@H](C(=O)O)c3cc(O)cc(O[C@H]4O[C@H](CO)[C@@H](O)[C@@H](O)[C@@H]4O)c3-c3cc2ccc3O)O[C@@H](CO)[C@@H](O)[C@@H]1O (stereo partly drawn)
2. N[C@H]1C(=O)N[C@@H]2Cc3ccc(c(Cl)c3)Oc3cc4cc(c3O)Oc3ccc(cc3Cl)[C@@H](O)[C@@H]3NC(=O)[C@H](NC(=O)[C@@H]4NC(=O)[C@@H](NC2=O)c2cc(O)cc(c2)Oc2cc1ccc2O)c1ccc(O)c(c1)-c1c(O)cc(O)cc1[C@@H](C(=O)O)NC3=O [TEICOPLANIN AGLYCON]

1: 0.25; 2: 0.016
